Source: ChEMBL document CHEMBL5661979

measured-on: Ephrin type-B receptor 4 (Homo sapiens, UniProt P54760)
Sequence (P54760 whole entry): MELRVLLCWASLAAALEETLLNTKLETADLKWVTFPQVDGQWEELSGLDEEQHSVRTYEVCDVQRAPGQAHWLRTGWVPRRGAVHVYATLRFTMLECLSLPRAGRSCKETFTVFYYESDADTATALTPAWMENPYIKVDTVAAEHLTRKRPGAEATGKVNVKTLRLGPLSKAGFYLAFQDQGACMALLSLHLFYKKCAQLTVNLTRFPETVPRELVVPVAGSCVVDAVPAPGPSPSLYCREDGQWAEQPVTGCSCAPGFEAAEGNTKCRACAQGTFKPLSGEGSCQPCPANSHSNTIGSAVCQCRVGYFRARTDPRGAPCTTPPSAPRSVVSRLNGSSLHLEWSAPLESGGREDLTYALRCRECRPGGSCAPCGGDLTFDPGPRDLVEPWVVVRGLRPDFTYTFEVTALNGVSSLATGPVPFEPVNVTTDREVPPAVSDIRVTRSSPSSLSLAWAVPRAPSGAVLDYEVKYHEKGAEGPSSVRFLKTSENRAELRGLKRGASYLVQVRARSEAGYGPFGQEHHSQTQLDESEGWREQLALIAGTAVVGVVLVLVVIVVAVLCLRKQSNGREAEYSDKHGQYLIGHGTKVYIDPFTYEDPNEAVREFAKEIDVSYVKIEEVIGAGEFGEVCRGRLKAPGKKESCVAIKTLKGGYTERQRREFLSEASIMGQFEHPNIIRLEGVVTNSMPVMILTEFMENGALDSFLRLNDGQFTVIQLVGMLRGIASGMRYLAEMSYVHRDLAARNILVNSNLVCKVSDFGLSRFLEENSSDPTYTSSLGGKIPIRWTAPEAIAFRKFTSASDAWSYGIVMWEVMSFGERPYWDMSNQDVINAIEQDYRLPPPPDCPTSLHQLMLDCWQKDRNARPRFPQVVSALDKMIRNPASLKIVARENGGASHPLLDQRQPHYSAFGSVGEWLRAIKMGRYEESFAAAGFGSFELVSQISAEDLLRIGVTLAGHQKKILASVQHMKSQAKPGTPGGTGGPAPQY
assay-remarks: Inhibition of EphB4 in human HeLa cells lysate pre incubated for 15 mins followed by ADP acyl phosphate probe addition and measured after 10 mins by LC-MS/MS analysis
Type: subcellular
metric: IC50

Task: Provide measured IC50 value, entry: "CCOc1cc(N2CCC(O)CC2)ccc1Nc1ncc2c(n1)N(C)c1ccccc1C(=O)N2C"
Result: > 50 µM

---

assay-remarks: Clearance in Sprague-Dawley rat at 1 mg/kg, iv measured up to 8 hrs by LC-MS/MS analysis
Assay type: ADME, organism-based
assay-context: in vivo
metric: clearance (mL/min/kg)
Entry rule: numbers only, all in mL/min/kg.

Task: Tell me measured clearance for "CCOc1cc(N2CCC(O)CC2)ccc1Nc1ncc2c(n1)N(C)c1ccccc1C(=O)N2C" please.
Result: 26

---

measured-on: Serine/threonine-protein kinase ATR (Homo sapiens)
Sequence (Q13535 whole entry): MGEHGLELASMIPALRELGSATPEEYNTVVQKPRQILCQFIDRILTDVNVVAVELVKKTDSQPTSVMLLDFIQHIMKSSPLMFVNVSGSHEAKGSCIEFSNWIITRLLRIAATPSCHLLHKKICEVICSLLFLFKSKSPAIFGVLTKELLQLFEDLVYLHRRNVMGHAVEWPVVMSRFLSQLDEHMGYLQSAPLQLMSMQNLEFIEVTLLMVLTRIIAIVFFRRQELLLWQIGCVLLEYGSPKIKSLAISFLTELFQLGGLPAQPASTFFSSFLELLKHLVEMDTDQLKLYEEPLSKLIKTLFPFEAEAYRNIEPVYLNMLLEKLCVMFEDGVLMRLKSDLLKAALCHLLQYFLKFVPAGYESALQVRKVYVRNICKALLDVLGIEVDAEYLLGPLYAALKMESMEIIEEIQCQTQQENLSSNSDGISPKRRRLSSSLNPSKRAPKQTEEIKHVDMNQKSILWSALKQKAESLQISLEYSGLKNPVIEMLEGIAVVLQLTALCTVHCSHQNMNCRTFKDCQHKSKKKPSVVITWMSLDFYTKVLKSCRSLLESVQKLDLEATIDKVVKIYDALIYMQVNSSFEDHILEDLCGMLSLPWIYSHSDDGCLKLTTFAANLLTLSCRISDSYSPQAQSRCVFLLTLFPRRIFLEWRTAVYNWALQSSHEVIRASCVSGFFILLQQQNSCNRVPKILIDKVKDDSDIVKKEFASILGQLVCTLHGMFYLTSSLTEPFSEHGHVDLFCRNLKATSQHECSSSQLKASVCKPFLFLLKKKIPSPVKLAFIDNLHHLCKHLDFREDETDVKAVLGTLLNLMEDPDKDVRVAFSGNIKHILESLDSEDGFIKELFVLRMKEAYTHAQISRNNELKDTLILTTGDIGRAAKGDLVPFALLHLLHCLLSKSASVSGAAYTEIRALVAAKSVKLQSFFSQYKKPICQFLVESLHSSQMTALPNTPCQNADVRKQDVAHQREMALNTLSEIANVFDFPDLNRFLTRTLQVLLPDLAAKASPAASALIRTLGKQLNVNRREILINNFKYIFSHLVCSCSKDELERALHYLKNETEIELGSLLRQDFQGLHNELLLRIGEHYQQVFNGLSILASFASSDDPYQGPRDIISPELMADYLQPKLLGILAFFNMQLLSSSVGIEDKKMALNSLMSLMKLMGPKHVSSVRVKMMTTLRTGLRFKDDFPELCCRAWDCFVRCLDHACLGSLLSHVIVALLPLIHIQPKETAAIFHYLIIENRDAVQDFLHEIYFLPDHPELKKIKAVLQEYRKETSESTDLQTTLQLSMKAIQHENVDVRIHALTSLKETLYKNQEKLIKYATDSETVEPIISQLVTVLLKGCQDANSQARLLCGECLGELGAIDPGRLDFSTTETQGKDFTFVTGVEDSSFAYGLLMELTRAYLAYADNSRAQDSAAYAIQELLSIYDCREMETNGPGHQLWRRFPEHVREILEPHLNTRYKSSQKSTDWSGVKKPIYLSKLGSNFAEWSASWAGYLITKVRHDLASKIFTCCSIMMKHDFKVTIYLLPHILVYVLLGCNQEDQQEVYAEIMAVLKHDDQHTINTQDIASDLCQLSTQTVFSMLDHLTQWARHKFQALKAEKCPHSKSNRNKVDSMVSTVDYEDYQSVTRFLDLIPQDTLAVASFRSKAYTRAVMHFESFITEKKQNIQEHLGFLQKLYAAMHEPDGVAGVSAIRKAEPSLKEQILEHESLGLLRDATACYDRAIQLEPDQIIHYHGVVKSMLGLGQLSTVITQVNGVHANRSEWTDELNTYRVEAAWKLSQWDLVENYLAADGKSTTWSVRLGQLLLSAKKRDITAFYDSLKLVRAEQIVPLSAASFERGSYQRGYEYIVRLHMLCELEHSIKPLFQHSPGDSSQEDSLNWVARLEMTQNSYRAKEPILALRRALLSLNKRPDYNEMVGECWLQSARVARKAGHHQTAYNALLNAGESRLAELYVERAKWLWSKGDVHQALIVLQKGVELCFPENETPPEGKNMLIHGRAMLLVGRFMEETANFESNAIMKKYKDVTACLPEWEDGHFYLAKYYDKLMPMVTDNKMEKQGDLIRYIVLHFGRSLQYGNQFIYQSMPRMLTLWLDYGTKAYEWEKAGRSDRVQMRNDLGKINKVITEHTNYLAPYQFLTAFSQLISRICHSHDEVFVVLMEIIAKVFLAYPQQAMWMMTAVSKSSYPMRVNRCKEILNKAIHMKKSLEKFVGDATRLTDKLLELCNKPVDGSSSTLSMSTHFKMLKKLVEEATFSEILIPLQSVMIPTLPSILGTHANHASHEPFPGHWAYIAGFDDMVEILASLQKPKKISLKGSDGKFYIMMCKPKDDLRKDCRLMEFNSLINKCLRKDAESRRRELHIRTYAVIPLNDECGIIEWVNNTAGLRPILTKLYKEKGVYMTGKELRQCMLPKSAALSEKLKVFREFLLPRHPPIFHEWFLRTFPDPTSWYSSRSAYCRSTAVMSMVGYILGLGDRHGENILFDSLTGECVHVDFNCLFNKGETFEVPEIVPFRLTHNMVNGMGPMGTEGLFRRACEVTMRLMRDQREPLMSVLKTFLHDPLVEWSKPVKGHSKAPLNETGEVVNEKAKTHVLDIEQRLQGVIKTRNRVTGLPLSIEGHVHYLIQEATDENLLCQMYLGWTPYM
assay-remarks: Inhibition of ATR in human HeLa cells lysate pre incubated for 15 mins followed by ATP acyl phosphate probe addition and measured after 10 mins by LC-MS/MS analysis
metric: IC50

Task: Name the recorded IC50 of the compound listed here: "CCOc1cc(N2CCC(O)CC2)ccc1Nc1ncc2c(n1)N(C)c1ccccc1C(=O)N2C"
Result: > 50 µM

---

measured-on: Interferon-induced, double-stranded RNA-activated protein kinase (Homo sapiens, UniProt P19525)
Sequence (P19525 whole entry): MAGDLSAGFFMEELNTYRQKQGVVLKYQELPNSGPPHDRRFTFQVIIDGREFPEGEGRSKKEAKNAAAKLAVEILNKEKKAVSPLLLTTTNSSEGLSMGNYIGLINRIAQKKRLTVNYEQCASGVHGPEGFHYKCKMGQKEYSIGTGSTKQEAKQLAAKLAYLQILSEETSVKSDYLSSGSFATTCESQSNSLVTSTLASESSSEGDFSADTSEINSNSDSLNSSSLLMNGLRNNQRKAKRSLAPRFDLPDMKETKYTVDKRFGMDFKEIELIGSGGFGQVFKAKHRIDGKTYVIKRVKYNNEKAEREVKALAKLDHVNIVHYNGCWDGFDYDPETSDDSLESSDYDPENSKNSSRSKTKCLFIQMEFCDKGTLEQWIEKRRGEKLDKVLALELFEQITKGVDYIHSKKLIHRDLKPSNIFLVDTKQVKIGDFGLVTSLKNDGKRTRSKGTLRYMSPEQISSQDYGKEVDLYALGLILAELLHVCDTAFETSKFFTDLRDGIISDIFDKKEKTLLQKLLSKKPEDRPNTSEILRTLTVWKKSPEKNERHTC
assay-remarks: Inhibition of PKR in human HeLa cells lysate pre incubated for 15 mins followed by ATP acyl phosphate probe addition and measured after 10 mins by LC-MS/MS analysis
Type: subcellular
metric: IC50

Task: Specify IC50 for "CCOc1cc(N2CCC(O)CC2)ccc1Nc1ncc2c(n1)N(C)c1ccccc1C(=O)N2C" and stop.
Result: > 50 µM
